Her2 level listing for selected compounds.
molecular target: Receptor tyrosine-protein kinase erbB-2 (Homo sapiens) (UniProt P04626); experiment: reducers of endogenous Her2 protein level, primary screen, SKBR3 breast tumor cells, AlphaScreen, ATP viability (AID 461); settings: 18-24 h, at 10 µM, stronger effect = lower value;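 also: lower value means less Her2 protein in the cells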
Sequence (P04626 whole entry, looked up): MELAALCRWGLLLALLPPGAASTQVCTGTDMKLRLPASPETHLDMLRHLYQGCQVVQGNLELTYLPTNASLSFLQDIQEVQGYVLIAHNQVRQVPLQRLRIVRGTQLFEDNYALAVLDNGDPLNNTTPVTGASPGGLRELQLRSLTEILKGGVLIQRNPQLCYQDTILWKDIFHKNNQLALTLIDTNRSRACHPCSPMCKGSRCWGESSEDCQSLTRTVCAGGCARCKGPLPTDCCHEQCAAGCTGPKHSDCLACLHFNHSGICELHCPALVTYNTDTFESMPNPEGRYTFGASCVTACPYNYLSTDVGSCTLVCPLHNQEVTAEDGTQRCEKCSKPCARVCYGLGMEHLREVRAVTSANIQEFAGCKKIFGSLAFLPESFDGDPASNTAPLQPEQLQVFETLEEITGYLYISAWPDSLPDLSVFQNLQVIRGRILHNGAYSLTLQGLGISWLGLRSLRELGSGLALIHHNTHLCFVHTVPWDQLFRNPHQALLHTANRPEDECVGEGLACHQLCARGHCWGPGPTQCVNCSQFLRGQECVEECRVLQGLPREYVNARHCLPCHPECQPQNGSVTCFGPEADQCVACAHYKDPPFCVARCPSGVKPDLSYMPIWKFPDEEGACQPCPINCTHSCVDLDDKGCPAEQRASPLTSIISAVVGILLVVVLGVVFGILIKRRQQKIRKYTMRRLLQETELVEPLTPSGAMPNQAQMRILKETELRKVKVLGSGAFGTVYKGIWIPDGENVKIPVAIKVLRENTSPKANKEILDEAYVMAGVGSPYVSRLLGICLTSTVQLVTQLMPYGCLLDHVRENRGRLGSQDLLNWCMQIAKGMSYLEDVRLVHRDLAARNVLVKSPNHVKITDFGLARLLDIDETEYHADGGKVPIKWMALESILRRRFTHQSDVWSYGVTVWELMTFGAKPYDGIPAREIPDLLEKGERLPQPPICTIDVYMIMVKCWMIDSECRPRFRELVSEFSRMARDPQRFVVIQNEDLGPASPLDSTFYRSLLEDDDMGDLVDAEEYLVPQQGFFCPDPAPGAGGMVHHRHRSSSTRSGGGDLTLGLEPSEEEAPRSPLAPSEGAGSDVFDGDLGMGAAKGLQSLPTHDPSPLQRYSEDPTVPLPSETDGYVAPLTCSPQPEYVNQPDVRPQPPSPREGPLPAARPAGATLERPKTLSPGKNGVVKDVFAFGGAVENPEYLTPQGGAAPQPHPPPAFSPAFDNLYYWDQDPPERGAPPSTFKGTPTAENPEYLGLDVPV
Lab book: enter the figure in %, no units written.

The following compounds have reported results that may help.
INSERT INTO results (compound, readout_type, result) VALUES
  ('CCOC(=O)c1ccccc1NC(=O)CSc1nc2c(c(=O)n(C)c(=O)n2C)n1C', 'Her2 level', 92),
  ('CCOC(=O)CN1CC23C=CC(O2)C(C(=O)Nc2ccc(OC)cc2OC)C3C1=O (configuration not stated)', 'Her2 level', 99),
  ('CC1=NC(Nc2nc(C)c3ccccc3n2)=NC(C)(C)C1', 'Her2 level', 72.5),
  ('CSc1nc2c(ccc3ccccc32)o1', 'Her2 level', 83.5),
  ('CCc1ccccc1N=C1SCC(=O)N1C', 'Her2 level', 102);

May I ask what Her2 level has been recorded for COc1cc(C(=O)Nc2ccc3c(c2)C(=O)N(CCC(=O)O)C3=O)cc(OC)c1OC ?
83

Given the compound O=C(Cn1nnc(-c2ccc(CN3CCOCC3)cc2)n1)NC1CCCCC1 , what is its reported Her2 level?
104
